Test: In vitro enzyme assay to detect hydrolysis of chlorophenol red-beta-D-[…] directly proportional to the number of Toxoplasma stably expressing beta-galactosidase
Type: functional, organism-based, Toxoplasma gondii
Set-up: scale not given: in the data most compounds retested in dose-response had high values
Details: 10 µM
In all, about 85,000 compounds went through this assay and about 440 (0.52%) showed an effect of 50% or more. What follows is part of a selection rich in strong results, with near analogues and random picks from the rest.
Measured Percent Effect of individual entries
I'd appreciate it if you wrote the number followed by its unit.

// solved cases for Percent Effect follow
MOLECULE	Percent Effect
Cc1cc(C(=O)Nc2cnn(CC(F)(F)F)c2)nc(N(C)C)n1	54.34%
Cn1ncc(C(=O)N2CCN(CCS(C)(=O)=O)CC2)c1Cl	67.81%
CO[C@H]1[C@@H]2CC[C@H]1CN(c1nc(C)nc3ccsc13)C2	70.73%
Cc1c(C(=O)N2CCC(C(O)c3ccc(Cl)cc3)CC2)cnn1C (centres undefined)	-2.382%

Query: Return reported Percent Effect; argument: CCc1cccc(OCC(=O)N2CCCC(n3cncn3)C2)c1 (centres undefined)
Result: 61.63%

Query: # lookup: Percent Effect of CO[C@H]1[C@@H]2CC[C@H]1CN(c1nc(C)nc3sccc13)C2
Result: 8.834%

Query: So what's the measured Percent Effect for this one? Cc1cc(C(=O)NCc2c(C)nn(C)c2C)nc(N2CCOCC2)n1
Result: 20.1%

Query: Data request, read-out Percent Effect, for CCn1nc(C)c2nc(C(C)C)nc(NCCCO)c21
Result: 1.913%

Query: State the recorded Percent Effect for this entry: CCN(CCNS(=O)(=O)N1CCOCC1)C(=O)OC(C)(C)C
Result: 51.95%

Query: May I ask what Percent Effect has been recorded for Cc1oc(-c2ccoc2)nc1CN1CCC[C@H]1CO ?
Result: 75.83%

###

The following molecules are listed with their measured Percent Effect values.
Test: In vitro enzyme assay to detect hydrolysis of chlorophenol red-beta-D-[…] directly proportional to the number of Toxoplasma stably expressing beta-galactosidase
Assay type: functional, organism-based, Toxoplasma gondii
Design: scale not given: in the data most compounds retested in dose-response had high values
Conditions: 10 µM
The whole screen tested about 85,000 compounds, of which about 440 (0.52%) showed an effect of 50% or more. The list comes from a sample in which strong results are over-represented; it also holds close analogues and randomly drawn compounds.
Kindly answer with a numeric value in %, unit omitted.

Previously resolved entries follow.
MOLECULE	NUMERIC_RESULT
Cc1nn(C)c(C)c1CN(C)C(=O)c1cc(NC(=O)C2CC2)n(C)n1	51.38
CCCc1nc(NCCCO)c2c(n1)c(C)nn2CC	3.108
Cn1nc(C(=O)NC2CC2)cc1NC(=O)C1CC1	-1.586
Cc1ccc(CN2Cc3nnn(C)c3C(COCC(=O)N(C)C)C2)s1.O=C(O)C(F)(F)F (stereo unspecified)	-13.89
CCn1nc(C)c(NC(=O)c2cc(NC(=O)C3CC3)n(C)n2)c1C	0.1763

Moving on to another molecule below.
Query: Item Cc1ccc(CN2Cc3nnn(C)c3C(COCC3CC3)C2)s1.O=C(O)C(F)(F)F (stereo unspecified) has what recorded Percent Effect?
Result: -9.58

###

Each item that follows carries a reported Percent Effect.
Experiment: In vitro enzyme assay to detect hydrolysis of chlorophenol red-beta-D-[…] directly proportional to the number of Toxoplasma stably expressing beta-galactosidase
Type: functional, organism-based, Toxoplasma gondii
Parameters: scale not given: in the data most compounds retested in dose-response had high values
Details: 10 µM
Screen size: about 85,000 compounds; about 440 (0.52%) showed an effect of 50% or more. What follows is part of a selection rich in strong results, with near analogues and random picks from the rest.
// units = %; emit number, no label

// below: answered compounds
COMPOUND	UNIT_INFO	NUMERIC_RESULT
O=S(=O)(NCCC(O)c1cccs1)c1ccccc1 (stereo unspecified)	%	0.7722
Cn1cc(-c2cnc(N3CCCC3)nc2)cc1C(=O)O	%	-6.676
CCn1nc(C)c2nnn(CC(=O)Nc3ccccc3)c(=O)c21	%	1.414
Clc1cccc(-c2cccc(N3CCC(NC4CCOCC4)CC3)c2)c1	%	94.46
Cc1ccc(S(=O)(=O)NCC2(O)CCOc3ccccc32)s1 (stereo unspecified)	%	3.665

Would you kindly look at the next entry?
Query: Which Percent Effect reading was recorded for the compound Cc1nn(C)c2c(=O)n(Cc3ccccc3)nnc12 ?
Result: 61.89

###

Test: In vitro enzyme assay to detect hydrolysis of chlorophenol red-beta-D-[…] directly proportional to the number of Toxoplasma stably expressing beta-galactosidase
Type: functional, organism-based, Toxoplasma gondii
Design: scale not given: in the data most compounds retested in dose-response had high values
Settings: 10 µM
In all, about 85,000 compounds went through this assay and about 440 (0.52%) showed an effect of 50% or more. This is one part of a sample in which strong results are shown more often than they occur.
OBSERVABLE: Percent Effect

Query: Request the reported Percent Effect associated with CN(C)CCNCCC(c1ccccc1)C1CCOC(C)(C)C1.O=C(O)C(=O)O (stereo unspecified)
Result: -5.061%

Query: Request the reported Percent Effect associated with Cn1nnnc1SCCNC(=O)c1cccc2ccnn12
Result: -7.372%

Query: Requested field: Percent Effect. Item: CC(O)CNC(=O)NCc1cccnc1OC1CCCC1 (stereo unspecified)
Result: -1.891%

Query: Which value of Percent Effect has been reported for Cc1ccc(C(CCNCCN(C)C)C2CCOC(C)(C)C2)cc1.O=C(O)C(=O)O (stereo unspecified) in the records?
Result: 5.223%

Query: So what does the record say about Percent Effect for CN(C)CCCNCC1CCOC(C)(C)C1 (stereo unspecified) ?
Result: 15.27%

Query: Consider the compound shown here: CN(C)CCCNCCC(c1ccccc1)C1CCOC(C)(C)C1.O=C(O)C(=O)O (stereo unspecified) What is its recorded Percent Effect?
Result: 13.16%

###

Assay: In vitro enzyme assay to detect hydrolysis of chlorophenol red-beta-D-[…] directly proportional to the number of Toxoplasma stably expressing beta-galactosidase
Type: functional, organism-based, Toxoplasma gondii
Parameters: scale not given: in the data most compounds retested in dose-response had high values
Details: 10 µM
Out of some 85,000 compounds screened, about 440 (0.52%) showed an effect of 50% or more. What follows is part of a selection rich in strong results, with near analogues and random picks from the rest.
OBSERVABLE: Percent Effect (%)
Unit % implied. Number only.

COMPOUND	Percent Effect (%)
CC(OCCCNC(=O)c1cccnc1O)c1ccccc1 (configuration not stated)	39.02

Query: I would be grateful if you could share the reported Percent Effect for CC(C)c1nccc(C2(c3ccccc3Cl)CCNCC2)n1 .
Result: 24.49

Query: Bench note: what Percent Effect did O=c1[nH]cccc1-c1nccc(C2(c3ccccc3Cl)CCNCC2)n1 show?
Result: 22.57

Query: Entry COc1ccc(N2CCCN(CC(=O)N3CCNC(=O)C3)CC2)cc1 has what Percent Effect?
Result: -0.2401

Query: Look at this compound and give its reported Percent Effect. Clc1ccccc1C1(c2ccnc(-c3ccncc3)n2)CCNCC1
Result: 16.95

Query: So what does the record say about Percent Effect for Clc1ccccc1C1(c2ccnc(C3CCCC3)n2)CCNCC1 ?
Result: 92.51

###

Assay: In vitro enzyme assay to detect hydrolysis of chlorophenol red-beta-D-[…] directly proportional to the number of Toxoplasma stably expressing beta-galactosidase
Type: functional, organism-based, Toxoplasma gondii
Design: scale not given: in the data most compounds retested in dose-response had high values
Conditions: 10 µM
The campaign covered roughly 85,000 compounds. About 440 (0.52%) showed an effect of 50% or more. The entries come from a sample that favours strong results as a whole.
Label scheme for Percent Effect: lower than 50% is -1, 50% and above is 1.

MOLECULE	CLASS_ASSIGNMENT
CC(=O)c1cccc(NS(=O)(=O)c2cc(C)c(C(=O)O)s2)c1	-1
CN(C)S(=O)(=O)c1ccc(-c2nc(C#N)c(NC3CCCCC3)o2)o1	-1

Query: Check if Percent Effect >= 50% (inclusive). Item: Cc1cc(C(=O)O)cc(S(=O)(=O)Nc2ccc3c(c2)OCCO3)c1C
Result: -1

Query: Dear colleague, could you confirm whether COc1ccccc1CC1CCCN(C(=O)c2nccnc2N)C1 (stereo unspecified) has Percent Effect at or above 50%?
Result: -1

Query: Please indicate if the recorded Percent Effect for CN(Cc1ccc2c(c1)OCCO2)Cc1nnnn1-c1ccccc1 meets or exceeds 50%.
Result: -1

Query: Determine whether measured Percent Effect meets or exceeds 50% for CC(C)CCC(=O)N1CCN(c2ncnc3nc(N)ccc23)CC1
Result: -1

Query: Confirm if Percent Effect reported for the molecule Cc1cccc(OCc2ccc(C(=O)N3N=CCC3(O)C(F)(F)F)o2)c1 (stereo unspecified) is 50% or above.
Result: 1

Query: Is reported Percent Effect greater than or equal to 50% here: CC(C)Nc1oc(-c2ccc(S(=O)(=O)N(C)C)o2)nc1C#N
Result: -1

Query: Please indicate if the recorded Percent Effect for CC(=O)Nc1ncc(S(=O)(=O)Nc2cccc(C)c2)s1 meets or exceeds 50%.
Result: 1

Query: Determine whether this molecule has Percent Effect no lower than 50%: CC(=O)N1CCN(c2ncnc3cc4c(cc23)OCCO4)CC1
Result: 1
